Molecular target: human LPA1 (Homo sapiens, UniProt Q92633)
Construct: expressed in transfected cells; host or cells: Chinese hamster ovary (CHO) cells
Sequence (Q92633 whole entry): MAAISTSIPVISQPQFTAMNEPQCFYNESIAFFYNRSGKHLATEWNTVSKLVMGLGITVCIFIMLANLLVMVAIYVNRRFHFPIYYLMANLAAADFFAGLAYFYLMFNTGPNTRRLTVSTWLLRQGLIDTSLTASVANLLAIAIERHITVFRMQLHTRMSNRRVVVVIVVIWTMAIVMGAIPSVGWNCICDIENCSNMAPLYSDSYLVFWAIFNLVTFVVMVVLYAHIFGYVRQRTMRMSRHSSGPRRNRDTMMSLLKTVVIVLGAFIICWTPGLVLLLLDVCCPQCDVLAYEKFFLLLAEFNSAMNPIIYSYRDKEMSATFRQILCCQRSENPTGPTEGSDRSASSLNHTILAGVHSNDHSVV
Assay: LPA1 functional antagonist assay (LPA-induced calcium flux in CHO cells overexpressing human LPA1)
Type: cell-based
Conditions: inhibition of calcium flux induced by 10 nM LPA, CHO cells overexpressing human LPA1; read-out: hLPA1 IC50
Please provide measured IC50 for the entries that follow.
One number for each entry, in µM.

The cases that follow already have their IC50 on record.
> print(dat)
                                        mol  numeric.value
1  Cc1nc(-c2nnn(C)c2Cn2nnc(C(C)C)n2)ccc1O[C@H]1CCC[C@H](C(=O)O)C1          0.099
2  Cc1nc(-c2nnn(C)c2CNc2nnc(C3CC3)s2)ccc1O[C@H]1CCC[C@H](C(=O)O)C1           2.24
3  Cc1nc(-c2nnn(C)c2CNc2cnn(CC3CCC3)n2)ccc1O[C@H]1CCC[C@H](C(=O)O)C1          0.033

Below: the item to evaluate.
Problem: Can you look up the measured IC50 of Cc1nc(-c2nnn(C)c2CNc2nsc(C(C)C)n2)ccc1O[C@H]1CCC[C@H](C(=O)O)C1 for me?
Result: 0.025

====

Target: human LPA1 (Homo sapiens)
Construct: expressed in transfected cells; host or cells: Chinese hamster ovary (CHO) cells
Experiment: LPA1 functional antagonist assay (LPA-induced calcium flux in CHO cells overexpressing human LPA1)
Type: cell-based
Conditions: inhibition of calcium flux induced by 10 nM LPA, CHO cells overexpressing human LPA1; read-out: hLPA1 IC50
I'd appreciate it if you could supply pIC50 values for the items below.
Numbers only, as −log10 of the molar value.

> print(dat)
                                   compound  assay.metric  numeric.value
1  Cc1nc(-c2nnn(C)c2Cc2noc(CCC3CCC3)n2)ccc1O[C@H]1CCC[C@H](C(=O)O)C1         pIC50           8.10
2  Cc1nc(-c2nnn(C)c2Cn2ncc(C3CC3)n2)ccc1O[C@H]1CCC[C@H](C(=O)O)C1         pIC50           7.05
3  Cc1nc(-c2nnn(C)c2Cn2nnnc2C(C)C)ccc1O[C@H]1CCC[C@H](C(=O)O)C1         pIC50           7.02
4  COCCCc1nc(NCc2c(-c3ccc(O[C@H]4CCC[C@H](C(=O)O)C4)c(C)n3)nnn2C)no1         pIC50           6.99
5  Cc1nc(-c2nnn(C)c2CNc2noc(C3CC34CC4)n2)ccc1O[C@H]1CCC[C@H](C(=O)O)C1 (stereo partly drawn) [Example 204]         pIC50           7.74

Batch lookup, pIC50 per entry.
1. Cc1nc(-c2nnn(C)c2CNc2noc(CCC(C)C)n2)c(F)cc1O[C@H]1CCC[C@H](C(=O)O)C1
2. Cc1nc(-c2nnn(C)c2CNc2cc(C(C)C)nn2C)ccc1O[C@H]1CCC[C@H](C(=O)O)C1
3. CC(C)c1nc(NCc2c(-c3ccc(O[C@H]4CCC[C@H](C(=O)O)C4)cn3)nnn2C)ns1
4. Cc1nc(-c2nnn(C)c2CNc2nc(CC3CC3)no2)ccc1O[C@H]1CCC[C@H](C(=O)O)C1

Result:
7.17
6.20
6.49
6.98

====

Molecular target: human LPA1 (Homo sapiens, UniProt Q92633)
Construct: expressed in transfected cells; host or cells: Chinese hamster ovary (CHO) cells
Test: LPA1 functional antagonist assay (LPA-induced calcium flux in CHO cells overexpressing human LPA1)
Assay type: cell-based
Conditions: inhibition of calcium flux induced by 10 nM LPA, CHO cells overexpressing human LPA1; read-out: hLPA1 IC50
Hi there, I'd appreciate the recorded log10 of IC50 for every entry that follows.
Kindly note that the scale is log10 and the underlying IC50 is in nM.

Recorded results for 6 compounds are shown here.
> print(dat)
                                   compound   assay.metric  numeric.value
1  CCCCc1nnn(Cc2c(-c3ccc(O[C@H]4CCC[C@H](C(=O)O)C4)cn3)nnn2C)n1  log10 of IC50           1.10
2  CCCc1cnc(NCc2c(-c3ccc(O[C@H]4CCC[C@H](C(=O)O)C4)c(C)n3)nnn2C)o1  log10 of IC50           1.56
3  Cc1nc(-c2nnn(C)c2CNc2nnc(C(F)(F)F)o2)ccc1O[C@H]1CCC[C@H](C(=O)O)C1  log10 of IC50           2.77
4  Cn1nnc(-c2ccc(O[C@H]3CCC[C@H](C(=O)O)C3)cn2)c1Cn1nnnc1C1CCCC1  log10 of IC50           2.64
5  Cc1nc(-c2nnn(C)c2CNc2nnc(CC3CC3)o2)ccc1O[C@H]1CCC[C@H](C(=O)O)C1  log10 of IC50           2.13
6  COC(C)c1nc(NCc2c(-c3ccc(O[C@H]4CCC[C@H](C(=O)O)C4)c(C)n3)nnn2C)no1 (mixture of isomers)  log10 of IC50           2.67

Problem: What measured log10 of IC50 goes with CCCc1nnc(OCc2c(-c3ccc(O[C@H]4CCC[C@H](C(=O)O)C4)c(C)n3)nnn2C)s1 ?
Result: 1.99

====

For each entry below, report its pIC50 value.
Target: human LPA1 (Homo sapiens)
Construct: expressed in transfected cells; host or cells: Chinese hamster ovary (CHO) cells
Assay: LPA1 functional antagonist assay (LPA-induced calcium flux in CHO cells overexpressing human LPA1)
Type: cell-based
Conditions: inhibition of calcium flux induced by 10 nM LPA, CHO cells overexpressing human LPA1; read-out: hLPA1 IC50
Experimental: The effectiveness of compounds of the present invention as LPA1 inhibitors can be determined in an LPA1 functional antagonist assay as follows: Chinese hamster ovary cells overexpressing human LPA1 were plated overnight (15,000 cells/well) in poly-D-lysine coated 384-well microplates (Greiner bio-one, Cat #781946) in DMEM/F12 medium (Gibco, Cat #11039). […] IC50 values were determined by fitting data to a 4-parameter logistic equation (GraphPad Prism, San Diego Calif.).
Structures can show the parent of a compound that is named as a salt.
Numbers only, as −log10 of the molar value.

Worked cases, answers included:
> print(dat)
                                   compound  numeric.value
1  Cc1nc(-c2nnn(C)c2CNc2noc(C3CCCC3)n2)ccc1O[C@H]1CCC[C@H](C(=O)O)C1           7.60
2  Cc1nc(-c2nnn(C)c2CNc2cc(C(C)(C)C)on2)ccc1O[C@H]1CCC[C@H](C(=O)O)C1           7.20
3  CCCc1nsc(OCc2c(-c3ccc(O[C@H]4CCC[C@H](C(=O)O)C4)c(C)n3)nnn2C)n1           6.37

Please give pIC50 for each item listed below.
1. Cc1nc(-c2nnn(C)c2CNc2nc(-c3ccccn3)ns2)ccc1O[C@H]1CCC[C@H](C(=O)O)C1
2. Cn1nnc(-c2ccc(O[C@H]3CCC[C@H](C(=O)O)C3)c(C#N)n2)c1Cn1cc(CC2CCCCC2)nn1
3. CCCOCc1nc(NCc2c(-c3ccc(O[C@H]4CCC[C@H](C(=O)O)C4)c(C)n3)nnn2C)no1 [Example 284, TFA salt]
4. Cc1nc(-c2nnn(C)c2CNc2noc(CCC(C)(F)F)n2)ccc1O[C@H]1CCC[C@H](C(=O)O)C1
5. Cc1nc(-c2nnn(C)c2CNc2noc(C3CC3(C)C)n2)ccc1O[C@H]1CCC[C@H](C(=O)O)C1 (stereo partly drawn) [Example 181]
6. Cc1nc(-c2nnn(C)c2CNc2noc(C3CC(C)C3)n2)ccc1O[C@H]1CCC[C@H](C(=O)O)C1 (stereo partly drawn) [Example 199]
7. Cc1nc(-c2nnn(C)c2Cn2ccc(Cc3ccccc3)n2)ccc1O[C@H]1CCC[C@H](C(=O)O)C1

Result:
[6.32, 7.27, 7.62, 7.38, 7.62, 7.48, 7.20]

Hi team, please reply with pIC50 for each item in this list.
1. C=CCC(C)c1nc(NCc2c(-c3ccc(O[C@H]4CCC[C@H](C(=O)O)C4)c(C)n3)nnn2C)no1 (stereo partly drawn)
2. Cc1nc(-c2nnn(C)c2CNc2cnn(CC3CC3)n2)ccc1O[C@H]1CCC[C@H](C(=O)O)C1
3. CCCCc1cn(Cc2c(-c3ccc(O[C@H]4CCC[C@H](C(=O)O)C4)c(C)n3)nnn2C)nn1
4. Cc1nc(-c2nnn(C)c2COc2noc(C(C)C)n2)ccc1O[C@H]1CCC[C@H](C(=O)O)C1

Result:
8.08
7.27
7.36
7.59

Problem: Fill blank: measured pIC50 of the compound Cc1nc(-c2nnn(C)c2Cn2cc(Cc3ccccc3)cn2)ccc1O[C@H]1CCC[C@H](C(=O)O)C1 is ____.
Result: 7.82
